# Test system: Strongylocentrotus purpuratus
# Assay Method Text: Agonist activity at NAADP receptor in sea urchin egg homogenate assessed as fold increase in EC50 for induction of Ca2+ release relative to NAADP
# Type: functional, tissue-based
Recorded Metric: fold change (FC)

>>> result_number("Nc1cc[n+]([C@H]2O[C@@H](COP(=O)(O)OP(=O)(O)OC[C@H]3O[C@@H](n4cnc5c(N)ncnc54)[C@H](OP(=O)(O)O)[C@@H]3O)[C@H](O)[C@@H]2O)cc1C(=O)[O-]")
235
>>> result_number("Nc1cc(C(=O)[O-])c[n+]([C@H]2O[C@@H](COP(=O)(O)OP(=O)(O)OC[C@H]3O[C@@H](n4cnc5c(N)ncnc54)[C@H](OP(=O)(O)O)[C@@H]3O)[C@H](O)[C@@H]2O)c1")
1.5
>>> result_number("Cc1cc[n+]([C@H]2O[C@@H](COP(=O)(O)OP(=O)(O)OC[C@H]3O[C@@H](n4cnc5c(N)ncnc54)[C@H](OP(=O)(O)O)[C@@H]3O)[C@H](O)[C@@H]2O)cc1C(=O)[O-]")
2200

src = ChEMBL document CHEMBL1275349
